assay_notes: yeast display, Sf9 membrane polyspecificity reagent, FACS + sequencing; frameworks hold sequencing errors
endpoint_label: polyreactivity (PSR sort gate)

Known results for sequences:
sequence_text=QVQHVESGGGLVQAGGSLRLSCAASGSTIRRNAMGWYRQAPGKERELVAAISGTGGRTYYADSVKGRFTISRDNAKNTVYLQMNSLKPEDTAVYYCNAAGRFYWGQGTQVTVSS endpoint_label="polyreactivity (PSR sort gate)" result="high polyreactivity"
sequence_text=QVQLVESGGGLVQAGGSLRLSCAASGITFGYYAMGWYRQAPGKERELVAAITWSGGSTYYADSVKGRFTISRDNAKNTVYLQMNSLKPEDTAVYYCNADRFGRAHVYPEFDYWGQGTQVTVSS endpoint_label="polyreactivity (PSR sort gate)" result="low polyreactivity"
sequence_text=QVQLVESGGGLVQGGGSLRLSCDDSGRNFNAYSRGWYRQATAKERELVAAISSRGGSTYYADSVKGRFTISRDNEMNSVYLKMNSLQPEDSAVYYFAAGIYTATGYGYWGQGTQVTVSS endpoint_label="polyreactivity (PSR sort gate)" result="high polyreactivity"
sequence_text=QVQLVESGGGLVQAGGSLRLSCAASGRIFVGYAMGWFRQAPGKERELVAAINRSGSSTYYADSVNGRFTISRDNAKNTVYLQMNSLKPEDTAVYYCAARYYPRVRYATYYGSYYWGQGTQVTVSS endpoint_label="polyreactivity (PSR sort gate)" result="high polyreactivity"
sequence_text=QVQLVESGGALGQAGGSLRLTSAASGITFPRYAIGWYRHAPGKEREMVATITRSGGGTYYADSVKGRFKISRDNAKNTVYLQMNSLKPEDTSVFYCAAGALQRGVYGYGFWGQGTQVTVSS endpoint_label="polyreactivity (PSR sort gate)" result="high polyreactivity"

For the sequence QVQLVESGGGLVQAGGSLRLSCAASGRTFDSNTMGWYRQAPGKERELVAAITGSGGRTYYADSVKGRFTISRDNAKNSVYLQMNSLKPEDTAVYYCAARPYFYERSAGYYWGQGTQVTVSS , what polyreactivity (PSR sort gate) is on record?
high polyreactivity

For the sequence QVQLVESGGGLVQAGGSLRLRCAASGFIFCQYSMGWYRQAPGKERELVAAITWGGTNTYYADSVKGRFTISRDNAKNTVYLQMNSLKPEDTAVYYCAADNSPFTGNLDYWGQGTQVTVSS , what polyreactivity (PSR sort gate) is on record?
low polyreactivity

For the sequence QVQLVESGGGLVQAGGSLLLSSAASGFTFGNNDMGWYRKSHGKERELVDAITKRGSSTYYADSVKGRFTISRDNAKNTVYLQMNSLKPEDTAVYHCAASWLGASGIRYDYWGQGTLVTVSS , what polyreactivity (PSR sort gate) is on record?
high polyreactivity

For the sequence QVQLVESGGGLVQAGGSLRLSCAASGFTFSYYAMGWYRQAPGKERELVAAISSGGSTYYADSVKGRFTISRDNAKNTVYLQMNSLKPEDTAVYYCNVLNYSSRHYLFSYDYWGQGTQVTVSS , what polyreactivity (PSR sort gate) is on record?
high polyreactivity

For the sequence QFQLVESVGGLVQAGGSLRLSCAASGSTFVRNELGWYRQAPGKERELVAANSVDGSSTYYADSVKGRFTISRDNAKNTVYLQINSLKPEDTAVYYCNADWDYRDFYDITYDYWGQGTQVTVSS , what polyreactivity (PSR sort gate) is on record?
low polyreactivity
